Molecular target: PIK3CB (Human) (UniProt P42338)
Sequence (P42338 whole entry, looked up): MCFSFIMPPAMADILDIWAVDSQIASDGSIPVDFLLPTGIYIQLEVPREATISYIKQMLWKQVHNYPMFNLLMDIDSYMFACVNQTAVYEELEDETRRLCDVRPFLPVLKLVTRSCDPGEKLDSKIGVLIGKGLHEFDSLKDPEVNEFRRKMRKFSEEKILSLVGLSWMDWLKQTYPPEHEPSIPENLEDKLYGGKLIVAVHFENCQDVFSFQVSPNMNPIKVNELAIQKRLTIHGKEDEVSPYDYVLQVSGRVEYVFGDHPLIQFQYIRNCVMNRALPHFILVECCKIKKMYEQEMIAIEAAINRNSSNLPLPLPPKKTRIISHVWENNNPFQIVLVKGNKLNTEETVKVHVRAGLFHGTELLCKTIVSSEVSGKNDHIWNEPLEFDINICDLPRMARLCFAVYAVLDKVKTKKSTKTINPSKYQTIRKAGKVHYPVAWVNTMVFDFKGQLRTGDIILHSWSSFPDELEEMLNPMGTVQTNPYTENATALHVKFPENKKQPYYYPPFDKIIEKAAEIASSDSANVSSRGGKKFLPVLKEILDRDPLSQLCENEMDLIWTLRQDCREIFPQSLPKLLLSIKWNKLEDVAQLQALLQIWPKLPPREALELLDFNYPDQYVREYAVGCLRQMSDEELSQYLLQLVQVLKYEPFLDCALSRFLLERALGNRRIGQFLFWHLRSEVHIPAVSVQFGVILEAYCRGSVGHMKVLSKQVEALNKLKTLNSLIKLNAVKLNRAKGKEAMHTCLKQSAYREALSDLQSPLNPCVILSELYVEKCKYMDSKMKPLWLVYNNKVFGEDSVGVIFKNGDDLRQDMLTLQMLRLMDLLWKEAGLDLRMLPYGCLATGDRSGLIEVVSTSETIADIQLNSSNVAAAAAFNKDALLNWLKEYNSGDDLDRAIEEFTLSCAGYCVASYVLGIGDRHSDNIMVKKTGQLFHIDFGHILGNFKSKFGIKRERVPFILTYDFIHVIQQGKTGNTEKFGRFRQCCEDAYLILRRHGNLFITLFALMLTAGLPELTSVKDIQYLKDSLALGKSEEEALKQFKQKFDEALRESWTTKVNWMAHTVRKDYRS
Test: Assessment of PIK3CB Kinase Activity
Please respond with reported IC50 for every item in the list.

CCOc1nc(-c2cnc(N)nc2N[C@@H](C)c2cc3cccc(Cl)c3c(=O)n2-c2ccccc2)cs1: < 0.1 µM

Please state, for each entry, its recorded IC50.
1. COc1ccc(-c2cccc3cc([C@H](C)Nc4nc(N)ncc4C#N)n(-c4ccccc4)c(=O)c23)nc1
2. COc1cc(-c2cccc3cc([C@H](C)Nc4nc(N)ncc4-c4ccncc4)n(-c4ccccc4)c(=O)c23)ccn1

1. > 10 µM
2. > 10 µM

====

Target: PIK3CG (human)
Measure name: IC50

C[C@H](Nc1nc(N)ncc1C#N)c1cc2cccc(-c3cnc4ccccc4c3)c2c(=O)n1-c1ccccc1: < 100 nM
COc1ncc(-c2cccc3cc([C@H](C)Nc4nc(N)ncc4C#N)n(-c4ccccc4)c(=O)c23)cn1: < 100 nM

Please state, for each entry, its recorded IC50.
1. C[C@H](Nc1ncnc(N)c1C#N)c1cc2cccc(Cl)c2c(=O)n1-c1ccon1
2. C[C@H](Nc1nc(N)ncc1C#N)c1cc2cccc(-c3ccnnc3)c2c(=O)n1-c1cccc(F)c1

1: 100 to 1000 nM; 2: 100 to 1000 nM

Entry C[C@H](Nc1nc(N)ncc1-c1ccccn1)c1cc2cccc(Cl)c2c(=O)n1-c1ccccc1 has what IC50? < 100 nM

====

Target: PIK3CG (human)
Measure name: IC50

Please state, for each entry, its recorded IC50.
1. COc1cc(-c2cccc3cc([C@H](C)Nc4nc(N)ncc4C(=O)O)n(-c4ccccc4)c(=O)c23)ccn1
2. C[C@H](Nc1nc(N)ncc1-c1nccs1)c1cc2cccc(Cl)c2c(=O)n1-c1ccccc1
3. C[C@H](Nc1nc(N)ncc1-c1cncs1)c1cc2cccc(Cl)c2c(=O)n1-c1ccccc1

> 10000 nM
< 100 nM
< 100 nM

Please state, for each entry, its recorded IC50.
1. C[C@H](Nc1nc(N)ncc1C#N)c1cc2cccc(Cl)c2c(=O)n1-c1ccc2c(c1)OCO2
2. C[C@H](Nc1nc(N)ncc1C#N)c1cc2cccc(-c3cccc(O)n3)c2c(=O)n1-c1ccccc1
3. CCOc1nc(-c2cnc(N)nc2N[C@@H](C)c2cc3cccc(Cl)c3c(=O)n2-c2ccccc2)cs1

1. < 100 nM
2. 100 to 1000 nM
3. < 100 nM

Please state, for each entry, its recorded IC50.
1. C[C@H](Nc1nc(N)ncc1C#N)c1cc2cccc(-c3ccnnc3)c2c(=O)n1C1CC1
2. C[C@H](Nc1nc(N)ncc1C#N)c1cc2cccc(Cl)c2c(=O)n1-c1c(F)cccc1F
3. COc1ncc(-c2cccc3cc([C@H](C)Nc4nc(N)ncc4C#N)n(-c4cccc(F)c4)c(=O)c23)cn1
4. CC(C)n1c([C@H](C)Nc2nc(N)ncc2C#N)cc2cccc(-c3ccc(=O)n(C)c3)c2c1=O
5. C[C@H](Nc1nc(N)ncc1C#N)c1nc2cccc(Cl)c2c(=O)n1-c1ccccc1
6. C[C@H](Nc1nc(N)ncc1C#N)c1cc2cccc(-c3cccc(NS(=O)(=O)N(C)C)c3)c2c(=O)n1-c1ccccc1
7. C[C@H](Nc1nc(N)ncc1C#N)c1cc2cccc(-c3cnc4[nH]ccc4c3)c2c(=O)n1-c1ccccc1
8. C[C@H](Nc1nc(N)ncc1C#N)c1cc2cccc(Cl)c2c(=O)n1C1CCCCC1

1: 100 to 1000 nM; 2: 100 to 1000 nM; 3: < 100 nM; 4: 100 to 1000 nM; 5: < 100 nM; 6: 100 to 1000 nM; 7: < 100 nM; 8: < 100 nM

Please state, for each entry, its recorded IC50.
1. COc1cc(-c2cccc3cc([C@H](C)Nc4nc(N)ncc4C#N)n(-c4cccc(F)c4)c(=O)c23)ccn1
2. C[C@H](Nc1nc(N)ncc1C#N)c1cc2cccc(-c3cccc(C#N)c3)c2c(=O)n1-c1ccccc1
3. C[C@H](Nc1nc(N)ncc1C#N)c1cc2cccc(C#CCCC(=O)N3CCOCC3)c2c(=O)n1-c1ccccc1
4. C[C@H](Nc1nc(N)ncc1C#N)c1cc2cccc(-c3cccc(NS(C)(=O)=O)c3)c2c(=O)n1-c1ccccc1
5. C[C@H](Nc1nc(N)ncc1-c1cccc(S(=O)(=O)N2CCCC2)c1)c1cc2cccc(Cl)c2c(=O)n1-c1ccccc1
6. Cc1ccc(-c2cccc3cc([C@H](C)Nc4nc(N)ncc4C#N)n(-c4ccccc4)c(=O)c23)cn1
7. CCOc1nc(-c2cnc(N)nc2N[C@@H](C)c2cc3cccc(-c4ccc(=O)n(C)c4)c3c(=O)n2-c2ccccc2)cs1
8. COc1cc(-c2cccc3cc([C@H](C)Nc4nc(N)ncc4C#N)n(-c4ccccc4)c(=O)c23)cnc1OC

1: < 100 nM; 2: < 100 nM; 3: < 100 nM; 4: < 100 nM; 5: < 100 nM; 6: < 100 nM; 7: < 100 nM; 8: < 100 nM

Please state, for each entry, its recorded IC50.
1. C[C@H](Nc1nc(N)ncc1C#N)c1cc2cccc(-c3cnc4ccccc4c3)c2c(=O)n1-c1cccc(F)c1
2. COc1ccc(-c2cccc3cc([C@H](C)Nc4nc(N)ncc4C#N)n(-c4ccccc4)c(=O)c23)cc1
3. Cc1ncc(-c2cccc3cc([C@H](C)Nc4nc(N)ncc4C#N)n(-c4ccccc4)c(=O)c23)cn1
4. C[C@H](Nc1nc(N)ncc1C#N)c1cc2cccc(-c3ccnc(N)c3)c2c(=O)n1-c1ccccc1
5. COc1cncc(-c2cccc3cc([C@H](C)Nc4nc(N)ncc4C#N)n(C4CC4)c(=O)c23)c1
6. C[C@H](Nc1nc(N)ncc1C#N)c1cc2cccc(Cl)c2c(=O)n1-c1cccc(C#N)c1
7. COc1nc(-c2cnc(N)nc2N[C@@H](C)c2cc3cccc(Cl)c3c(=O)n2-c2ccccc2)cs1
8. C[C@H](Nc1nc(N)ncc1C#N)c1cc2cccc(-c3ccnc(NS(C)(=O)=O)c3)c2c(=O)n1-c1ccccc1

1. < 100 nM
2. < 100 nM
3. < 100 nM
4. < 100 nM
5. < 100 nM
6. 100 to 1000 nM
7. < 100 nM
8. < 100 nM

Please state, for each entry, its recorded IC50.
1. COc1cc(-c2cccc3cc([C@H](C)Nc4nc(N)ncc4C#N)n(C4CC4)c(=O)c23)ccn1
2. C[C@H](Nc1nc(N)ncc1[N+](=O)[O-])c1cc2cccc(Cl)c2c(=O)n1-c1ccccc1
3. C[C@H](Nc1nc(N)ncc1C#N)c1cc2cccc(Cl)c2c(=O)n1-c1cccc(F)c1

< 100 nM
< 100 nM
< 100 nM

Hi! What's the reported IC50 for COc1ccc(-c2cccc3cc([C@H](C)Nc4nc(N)ncc4C#N)n(-c4ccccc4)c(=O)c23)cn1 on PIK3CG (human)? < 100 nM

Reference source: the Kinase Knowledgebase extract (Sharma et al. 2016)
